study target: Mer (Ba/F3 cells) (Homo sapiens, UniProt Q12866)
Sequence (Q12866 whole entry, change not shown): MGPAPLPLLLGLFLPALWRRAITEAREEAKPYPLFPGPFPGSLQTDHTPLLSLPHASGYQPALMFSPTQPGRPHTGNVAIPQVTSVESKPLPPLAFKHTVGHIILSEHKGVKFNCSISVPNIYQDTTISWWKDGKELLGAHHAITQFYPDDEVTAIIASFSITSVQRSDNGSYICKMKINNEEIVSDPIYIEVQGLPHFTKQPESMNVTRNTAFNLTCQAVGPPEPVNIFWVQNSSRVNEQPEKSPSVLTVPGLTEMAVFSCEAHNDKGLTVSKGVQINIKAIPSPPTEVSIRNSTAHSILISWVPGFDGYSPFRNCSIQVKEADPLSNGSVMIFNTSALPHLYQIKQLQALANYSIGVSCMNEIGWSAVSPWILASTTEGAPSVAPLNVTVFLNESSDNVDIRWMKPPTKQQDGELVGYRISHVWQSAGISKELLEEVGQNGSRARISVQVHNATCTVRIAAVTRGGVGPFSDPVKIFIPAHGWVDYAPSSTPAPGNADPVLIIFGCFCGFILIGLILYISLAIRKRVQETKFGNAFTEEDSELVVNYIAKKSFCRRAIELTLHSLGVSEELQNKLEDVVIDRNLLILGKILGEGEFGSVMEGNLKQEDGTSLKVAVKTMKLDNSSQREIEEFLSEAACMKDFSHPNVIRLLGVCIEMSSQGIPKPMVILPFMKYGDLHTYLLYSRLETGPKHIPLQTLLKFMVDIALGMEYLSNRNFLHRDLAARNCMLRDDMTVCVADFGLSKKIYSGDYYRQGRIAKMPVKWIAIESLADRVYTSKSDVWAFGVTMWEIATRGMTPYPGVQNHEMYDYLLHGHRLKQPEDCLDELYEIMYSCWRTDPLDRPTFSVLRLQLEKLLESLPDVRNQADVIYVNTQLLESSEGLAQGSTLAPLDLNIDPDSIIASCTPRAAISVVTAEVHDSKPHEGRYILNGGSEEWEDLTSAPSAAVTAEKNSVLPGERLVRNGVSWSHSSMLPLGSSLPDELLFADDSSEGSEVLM
test name: BaF3 viability assay, Mer-dependent cells
Type: cell-based
condition parameters: read-out: Cellular Mer activity by Ba/F3 assay (IC50)
Protocol: In this system, IL-3-dependent Ba/F3 cells are modified to express an activated recombinant kinase (in the present case Axl, Mer and CSF1R). […] Cell lines were maintained in growth media (GM) consisting of RPMI 1640 supplemented with 10% FBS. […] Viability was determined by adding 10 μl Cell Titer Glo and measuring luminescence, which is reported as relative light units (RLU) measured in counts per second. […]
recorded endpoint: GI50

compound | GI50
CCCn1cc(OCCC(O)CO)c(C(=O)Nc2ccc(Oc3ccnc4cc(OC)c(OC)cc34)cn2)n1 (centres unmarked) | 1000 to 10000 nM
COc1cc2nccc(Oc3ccc(NC(=O)c4nn(CCCO)cc4OCC(F)(F)F)nc3)c2cc1OC | < 1000 nM
CCCn1cc(OCC(F)(F)F)c(C(=O)Nc2ccc(Oc3ccnc4cc(OC)c(OC)cc34)cn2)n1 | < 1000 nM
COc1cc2nccc(Oc3ccc(NC(=O)c4n[nH]cc4OCC(F)(F)F)nc3)c2cc1OC | < 1000 nM

Query block: Tell me the measured GI50 of COc1cc2nccc(Oc3ccc(NC(=O)c4nn(C5CC5)cc4OCC(F)(F)F)nc3)c2cc1OC , please.
Result block: < 1000 nM

----------
study target: Axl (Homo sapiens)
test name: Cellular Axl inhibition ELISA (p-Axl, Gas6-induced) using H1299 cells
Format: cell-based
Parameters: especially H1299 cell endogenously expresses Axl; endogenous in cells; host or cells: H1299
condition parameters: read-out: Cellular Axl activity by H1299 Elisa (IC50)
recorded endpoint: IC50

compound | recorded endpoint | meas value
COc1cc2nccc(Oc3ccc(NC(=O)c4nn(C5CCOC5)cc4OCC(F)(F)F)nn3)c2cc1OC (stereo not shown) | IC50 | < 500 nM

Query block: Tell me the measured IC50 of COc1cc2nccc(Oc3ccc(NC(=O)c4nn(C5CCCCC5)cc4OCC(F)(F)F)nc3)c2cc1OC , please.
Result block: < 500 nM

Query block: Tell me the measured IC50 of CNCCn1cc(OCC(F)(F)F)c(C(=O)Nc2ccc(Oc3ccnc4cc(OC)c(OC)cc34)cn2)n1 , please.
Result block: < 500 nM

Query block: Tell me the measured IC50 of COc1cc2nccc(Oc3ccc(NC(=O)c4nn(C5CCNC5)cc4OCC(F)(F)F)cn3)c2cc1OC (stereo not shown) , please.
Result block: ≥ 1000 nM

Query block: Tell me the measured IC50 of COc1cc2nccc(Oc3ccc(NC(=O)c4nn(C5CCNC5)cc4OCC(F)(F)F)c(F)c3)c2cc1OC (stereo not shown) , please.
Result block: < 500 nM

Query block: Tell me the measured IC50 of COc1cc2nccc(Oc3ccc(NC(=O)c4nn(CC5CNC5)cc4OCC(F)(F)F)nc3)c2cc1OC , please.
Result block: ≥ 1000 nM

Query block: Tell me the measured IC50 of COc1cc2nccc(Oc3ccc(NC(=O)c4nn(CC5CCCCC5)cc4OCC(F)(F)F)nc3)c2cc1OC , please.
Result block: < 500 nM

----------
study target: CSF1R (Homo sapiens)
Sequence (P07333 20-972): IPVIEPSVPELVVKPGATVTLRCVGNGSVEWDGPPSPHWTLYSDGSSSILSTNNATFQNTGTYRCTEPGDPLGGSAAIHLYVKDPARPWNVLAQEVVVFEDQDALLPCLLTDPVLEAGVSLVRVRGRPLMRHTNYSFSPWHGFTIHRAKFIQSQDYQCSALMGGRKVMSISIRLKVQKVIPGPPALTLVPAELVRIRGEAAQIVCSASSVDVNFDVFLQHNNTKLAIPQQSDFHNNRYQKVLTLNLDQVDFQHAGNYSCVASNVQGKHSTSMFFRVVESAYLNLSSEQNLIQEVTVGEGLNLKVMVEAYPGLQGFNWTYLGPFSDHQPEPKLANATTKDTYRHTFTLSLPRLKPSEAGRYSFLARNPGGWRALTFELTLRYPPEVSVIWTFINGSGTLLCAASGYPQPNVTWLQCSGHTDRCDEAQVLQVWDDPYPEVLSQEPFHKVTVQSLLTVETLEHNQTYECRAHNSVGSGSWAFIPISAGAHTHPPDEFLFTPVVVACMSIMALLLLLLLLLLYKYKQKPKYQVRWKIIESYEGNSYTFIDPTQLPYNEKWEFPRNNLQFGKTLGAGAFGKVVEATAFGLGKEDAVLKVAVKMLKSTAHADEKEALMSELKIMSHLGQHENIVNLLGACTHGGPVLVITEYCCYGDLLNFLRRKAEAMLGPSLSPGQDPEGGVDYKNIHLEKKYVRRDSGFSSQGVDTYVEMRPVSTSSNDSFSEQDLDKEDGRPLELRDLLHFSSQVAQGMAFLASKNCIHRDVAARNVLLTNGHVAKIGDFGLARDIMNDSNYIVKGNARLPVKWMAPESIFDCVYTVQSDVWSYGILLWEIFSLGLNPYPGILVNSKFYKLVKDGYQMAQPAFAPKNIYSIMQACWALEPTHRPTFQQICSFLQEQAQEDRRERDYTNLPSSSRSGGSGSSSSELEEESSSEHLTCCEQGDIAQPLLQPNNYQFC
test name: KINOMEscan competition binding assay for CSF1R
Parameters: DNA tag for qPCR (not a peptide); host or cells: E. coli/T7 phage or HEK-293
condition parameters: @ 0.1 uM; read-out: CSF1R kinase binding activity, Range
recorded endpoint: inhibition at 0.1 µM

molecule | meas value
CCCn1cc(OCC(F)(F)F)c(C(=O)Nc2ccc(Oc3ccnc4cc(OC)c(OC)cc34)nn2)n1 | ≥ 80%

Query block: Tell me the measured inhibition at 0.1 µM of COc1cc2nccc(Oc3ccc(NC(=O)c4nn(CC5CCCCC5)cc4OCC(F)(F)F)nc3)c2cc1OC , please.
Result block: ≥ 80%

Query block: Tell me the measured inhibition at 0.1 µM of CCCn1cc(OCC(F)(F)F)c(C(=O)Nc2ccc(Oc3ccnc4cc(OC)c(OC)cc34)nc2)n1 , please.
Result block: < 50%

Query block: Tell me the measured inhibition at 0.1 µM of COCCn1cc(OCC(F)(F)F)c(C(=O)Nc2ccc(Oc3ccnc4cc(OC)c(OC)cc34)nc2)n1 , please.
Result block: < 50%

Query block: Tell me the measured inhibition at 0.1 µM of COc1cc2nccc(Oc3ccc(NC(=O)c4nn(C5CCN(C)C5)cc4OCC(F)(F)F)cc3)c2cc1OC (stereo not drawn) , please.
Result block: < 50%

Query block: Tell me the measured inhibition at 0.1 µM of CCn1cc(OCC2CCC2)c(C(=O)Nc2ccc(Oc3ccnc4cc(OC)c(OC)cc34)cn2)n1 , please.
Result block: ≥ 80%

Query block: Tell me the measured inhibition at 0.1 µM of COc1cc2nccc(Oc3ccc(NC(=O)c4nn(C5CC5)cc4OC(C)C)nc3)c2cc1OC , please.
Result block: ≥ 80%

Query block: Tell me the measured inhibition at 0.1 µM of COc1cc2nccc(Oc3ccc(NC(=O)c4nn(C)cc4OCC(F)(F)F)cc3F)c2cc1OC , please.
Result block: 50 to 80%

Query block: Tell me the measured inhibition at 0.1 µM of COc1cc2nccc(Oc3ccc(NC(=O)c4nn(CC(C)O)cc4OC(C)C)nc3)c2cc1OC (stereo not drawn) , please.
Result block: ≥ 80%

Query block: Tell me the measured inhibition at 0.1 µM of CCCn1cc(OCC(F)(F)F)c(C(=O)Nc2ccc(Oc3ccnc4cc(OC)c(OC)cc34)c(C)c2)n1 , please.
Result block: ≥ 80%

Query block: Tell me the measured inhibition at 0.1 µM of COc1cc2nccc(Oc3ccc(NC(=O)c4nn(C5CC5)cc4OCC(F)(F)F)nn3)c2cc1OC , please.
Result block: ≥ 80%

----------
study target: UniProtKB P07333
test name: KINOMEscan competition binding assay for CSF1R
Design: DNA tag for qPCR (not a peptide); host or cells: E. coli/T7 phage or HEK-293
condition parameters: @ 0.1 uM; read-out: CSF1R kinase binding activity, Range
Entries and their measured inhibition at 0.1 µM follow.

Some compounds with recorded inhibition at 0.1 µM:
compound | study target | inhibition at 0.1 µM
CCn1cc(OC(C)C)c(C(=O)Nc2ccc(Oc3ccnc4cc(OC)c(OC)cc34)cn2)n1 | UniProtKB P07333 | ≥ 80%
COc1cc2nccc(Oc3ccc(NC(=O)c4nn(CC5CNC5)cc4OCC(F)(F)F)nc3)c2cc1OC | UniProtKB P07333 | ≥ 80%
COc1cc2nccc(Oc3ccc(NC(=O)c4nn(CC(C)O)cc4OCC(F)F)nc3)c2cc1OC (stereo not drawn) | UniProtKB P07333 | ≥ 80%

Query block: Tell me the measured inhibition at 0.1 µM of COc1cc2nccc(Oc3ccc(NC(=O)c4nn(CC(C)C)cc4OCC(F)(F)F)cc3)c2cc1OC , please.
Result block: 50 to 80%

----------
study target: CSF1R (Homo sapiens)
test name: KINOMEscan competition binding assay for CSF1R
Parameters: DNA tag for qPCR (not a peptide); host or cells: E. coli/T7 phage or HEK-293
condition parameters: @ 0.1 uM; read-out: CSF1R kinase binding activity, Range
recorded endpoint: inhibition at 0.1 µM

compound | study target | inhibition at 0.1 µM
COCCn1cc(OCC(F)(F)F)c(C(=O)Nc2ccc(Oc3ccnc4cc(OC)c(OC)cc34)nn2)n1 | CSF1R (Homo sapiens) | 50 to 80%

Query block: Form: Entry = COc1cc2nccc(Oc3ccc(NC(=O)c4nn(CCN)cc4OCC(F)(F)F)nn3)c2cc1OC | System = CSF1R (Homo sapiens) | inhibition at 0.1 µM = ____
Result block: < 50%

Query block: Form: Entry = COc1cc2nccc(Oc3ccc(NC(=O)c4nn(C5CCN(C)C5)cc4OCC(F)(F)F)cn3)c2cc1OC (stereo not shown) | System = CSF1R (Homo sapiens) | inhibition at 0.1 µM = ____
Result block: < 50%

Query block: Form: Entry = COc1cc2nccc(Oc3ccc(NC(=O)c4nn(CCNC5CC5)cc4OCC(F)(F)F)nc3)c2cc1OC | System = CSF1R (Homo sapiens) | inhibition at 0.1 µM = ____
Result block: ≥ 80%

----------
Entries and their measured Kd follow.
study target: Axl (Homo sapiens, UniProt P30530)
Sequence (P30530 26-894): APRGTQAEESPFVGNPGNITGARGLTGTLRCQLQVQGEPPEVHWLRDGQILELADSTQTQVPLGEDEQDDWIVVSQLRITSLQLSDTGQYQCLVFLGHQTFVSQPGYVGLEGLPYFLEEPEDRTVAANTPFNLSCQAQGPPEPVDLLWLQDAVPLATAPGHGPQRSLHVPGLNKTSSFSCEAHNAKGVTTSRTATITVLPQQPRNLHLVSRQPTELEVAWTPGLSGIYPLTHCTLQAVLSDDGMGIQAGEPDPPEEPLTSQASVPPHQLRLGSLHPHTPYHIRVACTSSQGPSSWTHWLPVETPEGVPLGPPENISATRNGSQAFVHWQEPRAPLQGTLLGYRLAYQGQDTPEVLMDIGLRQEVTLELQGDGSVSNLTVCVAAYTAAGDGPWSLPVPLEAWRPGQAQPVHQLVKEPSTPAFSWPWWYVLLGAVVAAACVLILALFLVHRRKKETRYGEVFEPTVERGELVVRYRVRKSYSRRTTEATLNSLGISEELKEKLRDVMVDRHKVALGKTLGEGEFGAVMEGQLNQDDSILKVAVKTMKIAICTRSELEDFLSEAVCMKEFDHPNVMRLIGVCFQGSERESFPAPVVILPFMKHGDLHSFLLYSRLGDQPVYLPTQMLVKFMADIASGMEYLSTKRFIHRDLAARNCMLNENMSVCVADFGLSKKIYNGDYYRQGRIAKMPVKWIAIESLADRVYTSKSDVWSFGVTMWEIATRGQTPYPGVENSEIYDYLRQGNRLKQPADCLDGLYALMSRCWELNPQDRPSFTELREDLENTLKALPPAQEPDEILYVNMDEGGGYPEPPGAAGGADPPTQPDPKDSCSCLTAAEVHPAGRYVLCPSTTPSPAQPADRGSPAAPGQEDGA
test name: LanthaScreen Eu kinase binding assay for Axl
condition parameters: read-out: Axl kinase binding activity (Kd)

compound | recorded endpoint | meas value
COc1cc2nccc(Oc3ccc(NC(=O)c4nn(CC(C)O)cc4OCC(F)(F)F)c(F)c3)c2cc1OC (stereo not shown) [Compound 76] | Kd | < 100 nM
CCCn1cc(OCCOC)c(C(=O)Nc2ccc(Oc3ccnc4cc(OC)c(OC)cc34)cn2)n1 [Compound 105] | Kd | < 100 nM
COc1cc2nccc(Oc3ccc(NC(=O)c4nn(C5CC5)c(C(C)=O)c4OCC(F)(F)F)nc3)c2cc1OC [Compound 3] | Kd | < 100 nM
COc1cc2nccc(Oc3ccc(NC(=O)c4nn(CC(C)O)cc4OC(C)C)nc3)c2cc1OC (stereo not shown) [Compound 151] | Kd | < 100 nM
COc1cc2nccc(Oc3ccc(NC(=O)c4nn(CCN)cc4OCC(F)(F)F)cc3C)c2cc1OC [Compound 82] | Kd | ≥ 500 nM

Query block: Tell me the measured Kd of COc1cc2nccc(Oc3ccc(NC(=O)c4nn(CCO)cc4OCC(F)(F)F)cc3C)c2cc1OC [Compound 56] , please.
Result block: 100 to 500 nM

Query block: Tell me the measured Kd of CCCn1cc(OCC(F)(F)F)c(C(=O)Nc2ccc(Oc3ccnc4cc(OC)c(OC)cc34)c(C(F)(F)F)c2)n1 [Compound 114] , please.
Result block: < 100 nM
